test: Probe fluorescence intensity change with UCB:BSA; type: binding; conditions: 1:1 UCB:BSA, 440 nm
// NOT MET strictly below -0.7 in ΔI/Io 1:1 UCB:BSA 440 nm; MET otherwise

Decide: ΔI/Io 1:1 UCB:BSA 440 nm of L1P1 B4: FABP probe, mutations 14I 72W 117W vs SEQ ID NO: 2 (protein, listed as Rattus norvegicus, PEPTIDE (1)...(131) wild-type rat intestinal fatty acid binding protein) AFDGTWKVDRNENIEKFMEKMGINVVKRKLGAHDNLKLTITQEGNKFTVKESSNFRNIDVVFELGVDFAYSWADGTELTGTWTMEGNKLVGKFKRVDNGKELIAVREISGNELIQTWTYEGVEAKRIFKKE >= -0.7? MET

Same question, L1P5 H9: FABP probe, mutations 14M 72I 117W vs SEQ ID NO: 2 (protein, listed as Rattus norvegicus, PEPTIDE (1)...(131) wild-type rat intestinal fatty acid binding protein) AFDGTWKVDRNENMEKFMEKMGINVVKRKLGAHDNLKLTITQEGNKFTVKESSNFRNIDVVFELGVDFAYSIADGTELTGTWTMEGNKLVGKFKRVDNGKELIAVREISGNELIQTWTYEGVEAKRIFKKE this time MET

Now this one: L1P1 C12: FABP probe, mutations 38I 72W 117W vs SEQ ID NO: 2 (protein, listed as Rattus norvegicus, PEPTIDE (1)...(131) wild-type rat intestinal fatty acid binding protein) AFDGTWKVDRNENYEKFMEKMGINVVKRKLGAHDNLKITITQEGNKFTVKESSNFRNIDVVFELGVDFAYSWADGTELTGTWTMEGNKLVGKFKRVDNGKELIAVREISGNELIQTWTYEGVEAKRIFKKE NOT MET

Consider next the molecule L1P12 E8: FABP probe, mutations 14L 38A 72G 117F 114E vs SEQ ID NO: 2 (protein, listed as Rattus norvegicus, PEPTIDE (1)...(131) wild-type rat intestinal fatty acid binding protein) AFDGTWKVDRNENLEKFMEKMGINVVKRKLGAHDNLKATITQEGNKFTVKESSNFRNIDVVFELGVDFAYSGADGTELTGTWTMEGNKLVGKFKRVDNGKELIAVREISGNELEQTFTYEGVEAKRIFKKE in the same way. NOT MET

What do you get for ADIFAB2: acrylodan-derivatized rI-FABP with Ala substituted for Leu at position 72 (rI-FABP-L72A), SEQ ID NO: 4 (protein, listed as Rattus norvegicus, acrylodan label; MUTAGEN (72)...(72) rat intestinal fatty acid binding protein with alanine substitution for leucine at position 72) AFDGTWKVDRNENYEKFMEKMGINVVKRKLGAHDNLKLTITQEGNKFTVKESSNFRNIDVVFELGVDFAYSAADGTELTGTWTMEGNKLVGKFKRVDNGKELIAVREISGNELIQTYTYEGVEAKRIFKKDRGHHHHHH ? MET
